Value source: patent US20060069084A1

Reported pIC50 by item:
Molecular target: TYK2 (Homo sapiens)
Construct: The kinase domain of humanTYK2 was amplified from A549 mRNA; His tag (from pBlueBacHis2A vector; nickel chelate purification) (N); made in house; host or cells: baculovirus; virus made in Sf9, large-scale expression in High Five insect cells
Sequence (P29597 897-1176 limits assumed): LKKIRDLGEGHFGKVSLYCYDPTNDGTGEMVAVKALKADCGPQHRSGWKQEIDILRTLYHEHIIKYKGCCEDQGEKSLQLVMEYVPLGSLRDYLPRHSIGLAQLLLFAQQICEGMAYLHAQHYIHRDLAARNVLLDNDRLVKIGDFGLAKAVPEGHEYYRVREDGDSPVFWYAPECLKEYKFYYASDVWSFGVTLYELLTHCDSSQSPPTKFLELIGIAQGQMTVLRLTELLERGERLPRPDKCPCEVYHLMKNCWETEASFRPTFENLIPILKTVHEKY
Test: TYK2 kinase domain capture-based ELISA kinase assay
Format: biochemical
Settings: Table 5; inhibit 50% of activity at 50 μM
pIC50: −log10 of the molar value.

Before answering, review these 6 worked examples.
Data request: Answer briefly: pIC50 recorded on TYK2 (Homo sapiens) for c1ccc(CNc2nc(Nc3cccc4[nH]ccc34)cn3ccnc23)cc1
Data returned: > 4.30

Data request: Answer briefly: pIC50 recorded on TYK2 (Homo sapiens) for COc1cc(-c2cn3ccnc3c(N3CCCN(C)CC3)n2)cc(OC)c1OC
Data returned: > 4.30

Data request: Answer briefly: pIC50 recorded on TYK2 (Homo sapiens) for Brc1cn2ccnc2c(Nc2ccc(N3CCOCC3)cc2)n1 [drawing 82]
Data returned: > 4.30

Data request: Answer briefly: pIC50 recorded on TYK2 (Homo sapiens) for CC(C)[C@H](CO)Nc1nc(-c2cccc(N)c2)cn2ccnc12
Data returned: > 4.30

Data request: Answer briefly: pIC50 recorded on TYK2 (Homo sapiens) for CCN(CCO)c1ccc(Nc2nc(-c3ccccc3CO)cn3ccnc23)cc1 [drawing 69]
Data returned: > 4.30

Data request: Answer briefly: pIC50 recorded on TYK2 (Homo sapiens) for COc1ccc(Nc2nc(-c3ccc4ccccc4c3)cn3ccnc23)cn1
Data returned: > 4.30

Further cases:
Data request: Answer briefly: pIC50 recorded on TYK2 (Homo sapiens) for CCN(CCO)c1ccc(Nc2nc(-c3cccc4ccccc34)cn3ccnc23)cc1 [drawing 68]
Data returned: > 4.30

Data request: Answer briefly: pIC50 recorded on TYK2 (Homo sapiens) for Oc1ccc(-c2cn3ccnc3c(N3CCOCC3)n2)cc1 [drawing 75]
Data returned: > 4.30

Data request: Answer briefly: pIC50 recorded on TYK2 (Homo sapiens) for O=C(NCCO)c1cccc(-c2cn3ccnc3c(Nc3ccc(N4CCOCC4)cc3)n2)c1
Data returned: > 4.30

Data request: Answer briefly: pIC50 recorded on TYK2 (Homo sapiens) for Nc1cccc(-c2cn3ccnc3c(Nc3ccccc3)n2)c1 [drawing 71]
Data returned: > 4.30
